Ref: patent US10463664B2

assay_method_text: in vitro
conditions: human
property: CC50 at 24 h

INSERT INTO assay_data (compound, property, data_value) VALUES
  ('Nc1nc2c(ncn2COCCO)c(=O)[nH]1 [ACV, Acyclovir, reference compound]', 'CC50 at 24 h', '> 100 µM'),
  ('Cc1cc(C2CCCCC2)n(O)c(=O)c1 [Compound 41, Ciclopirox, reference compound]', 'CC50 at 24 h', '> 100 µM'),
  ('O=c1cccccc1O', 'CC50 at 24 h', '> 100 µM');

* * *

Test system: HFFs
assay_method_text: Neutral red cytotoxicity assay in HFFs (10 day, with plaque reduction assay)
Format: cell-based, human
conditions: 10 day assay
Each entry below carries its recorded CC50.
property: CC50 (µM)

INSERT INTO measurements (compound, property, data_value) VALUES
  ('C=C(C)C1CCc2c(c(C)cc(O)c(=O)c2O)C1 (stereo not shown) [Compound 56, Manicol]', 'CC50', 6.7),
  ('CC(C)=CCc1ccc(O)c(=O)cc1C(C)C [Compound 49, Nootkatin]', 'CC50', 6.7),
  ('CC(=O)NC(CCc1ccc(Cl)c(Cl)c1)c1cccc(O)c(=O)c1 (stereo not shown) [Compound 55]', 'CC50', 8),
  ('CC(C)c1ccc(O)c(=O)c(O)c1 [Compound 46, Beta-thujaplicinol]', 'CC50', 6.7);

* * *

system_name: human RNaseH1 (Homo sapiens, UniProt O60930)
Construct: hexahistidine; made in house; host or cells: E. coli
Sequence (O60930 whole entry): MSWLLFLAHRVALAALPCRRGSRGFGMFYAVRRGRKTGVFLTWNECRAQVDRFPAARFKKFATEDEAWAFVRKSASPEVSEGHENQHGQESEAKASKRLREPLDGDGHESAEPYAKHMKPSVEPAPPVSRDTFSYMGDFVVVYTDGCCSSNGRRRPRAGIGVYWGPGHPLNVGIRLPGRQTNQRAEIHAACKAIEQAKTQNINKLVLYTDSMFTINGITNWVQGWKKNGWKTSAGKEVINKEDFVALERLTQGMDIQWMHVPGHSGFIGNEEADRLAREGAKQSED
assay_method_text: Biochemical inhibition of human RNaseH1 (oligonucleotide-directed RNA cleavage assay)
conditions: compounds at 60, 20 or 10 μM
property: Anti-Human RNaseH1

INSERT INTO measurements (compound, system_name, data_value) VALUES
  ('CC(=O)NC(CCc1ccc(Cl)c(Cl)c1)c1cccc(O)c(=O)c1 (stereo not shown)', 'human RNaseH1 (Homo sapiens, UniProt O60930)', '+ (inhibition at 60 μM)'),
  ('CCOC(=O)c1cc2ccccc2n(O)c1=O', 'human RNaseH1 (Homo sapiens, UniProt O60930)', '+ (inhibition at 60 μM)');

* * *

Tested on: HSV-2
assay_method_text: Anti-HSV-2 replication assay in Vero cells, titer by plaque assay
Format: cell-based, herpes simplex virus 2
conditions: moi 0.1, 24 h
Each entry below carries its recorded EC50.
property: EC50 (nM)

INSERT INTO measurements (molecule, data_value) VALUES
  ('CC(=O)NC(CCc1ccc(Cl)c(Cl)c1)c1cccc(O)c(=O)c1 (stereo not shown)', 1070),
  ('CCOc1ccc(-c2c3cc(O)c(=O)cc-3oc3cc(O)c(O)cc23)cc1', 3930),
  ('C=C(C)C1CCc2c(c(C)cc(O)c(=O)c2O)C1 (stereo not shown)', 580),
  ('CC(C)c1ccc(O)c(=O)c(O)c1', 1690);

* * *

Tested on: HSV-2
assay_method_text: Anti-HSV-2 replication assay in Vero cells, titer by plaque assay
Type: cell-based, herpes simplex virus 2
conditions: primary screening
Protocol: Anti-HSV-1 and -HSV-2 Replication Assay. Compounds to be screened were diluted in PBS supplemented to contain 2% newborn calf serum and 1% glutamine, and added in 100 μL, volume to confluent cell monolayers in 24-well cluster plates. […] Samples were frozen at −80° C., and then subsequently thawed, sonicated, and infectious virus titer was determined by standard plaque assay on Vero cell monolayers. […] The inhibitory values were calculated by non-linear curve-fitting in GraphPad Prism. […]
property: Inhibition of HSV-2 replication (in words)

INSERT INTO measurements (molecule, data_value) VALUES
  ('Cc1ccc(S(=O)(=O)Oc2cccccc2=O)cc1 [Compound 61]', 'negligible inhibitors'),
  ('O=c1cccccc1O [Compound 53, Tropolone]', 'negligible inhibitors');

* * *

Tested on: HSV-1
assay_method_text: HSV-1 replication inhibition in primary human foreskin fibroblasts
Assay type: cell-based, herpes simplex virus 1
conditions: HFF cells, 50 μM, relative to DMSO-treated control
Protocol: Anti-HSV-1 and -HSV-2 Replication Assay. Compounds to be screened were diluted in PBS supplemented to contain 2% newborn calf serum and 1% glutamine, and added in 100 μL, volume to confluent cell monolayers in 24-well cluster plates. […] Samples were frozen at −80° C., and then subsequently thawed, sonicated, and infectious virus titer was determined by standard plaque assay on Vero cell monolayers. […] The inhibitory values were calculated by non-linear curve-fitting in GraphPad Prism. […]
Each entry below carries its recorded Replication inhibition HSV-1 50 μM.
property: Replication inhibition HSV-1 50 μM (log10)

INSERT INTO assay_data (molecule, data_value) VALUES
  ('Cc1cc(C2CCCCC2)n(O)c(=O)c1 [Compound 41, Ciclopirox, reference compound]', 5.57),
  ('CC(=O)NC(CCc1ccc(Cl)c(Cl)c1)c1cccc(O)c(=O)c1 (centres unmarked)', 6.17),
  ('CC(C)=CCc1ccc(O)c(=O)cc1C(C)C', 6.27),
  ('O=c1cccccc1O', 2.13),
  ('CC(C)c1ccc(O)c(=O)c(O)c1', 6.39);

* * *

Each entry below carries its recorded Replication inhibition HSV-1 50 μM.
System: HSV-1
assay_method_text: HSV-1 replication inhibition in primary human foreskin fibroblasts
Assay type: cell-based, herpes simplex virus 1
conditions: HFF cells, 50 μM, relative to DMSO-treated control
property: Replication inhibition HSV-1 50 μM (log10)

INSERT INTO measurements (compound, system_name, data_value) VALUES
  ('CC(C)c1ccc(O)c(=O)cc1', 'HSV-1', 5.99),
  ('Nc1nc2c(ncn2COCCO)c(=O)[nH]1 [ACV, Acyclovir, reference compound]', 'HSV-1', 6.69),
  ('CC(C)c1cccc(O)c(=O)c1', 'HSV-1', 5.06),
  ('C=C(C)C1CCc2c(c(C)cc(O)c(=O)c2O)C1 (centres unmarked)', 'HSV-1', 6.39),
  ('CCOc1ccc(-c2c3cc(O)c(=O)cc-3oc3cc(O)c(O)cc23)cc1', 'HSV-1', 5.23);
